Recorded A492 by entry
- assay_system: T1, human CD20 antigen (human, UniProt P11836 1-297)
- T1 construct: whole, on cells; also called CD20/CHO cells; CD20 on Raji cells
- T1 sequence (looked up): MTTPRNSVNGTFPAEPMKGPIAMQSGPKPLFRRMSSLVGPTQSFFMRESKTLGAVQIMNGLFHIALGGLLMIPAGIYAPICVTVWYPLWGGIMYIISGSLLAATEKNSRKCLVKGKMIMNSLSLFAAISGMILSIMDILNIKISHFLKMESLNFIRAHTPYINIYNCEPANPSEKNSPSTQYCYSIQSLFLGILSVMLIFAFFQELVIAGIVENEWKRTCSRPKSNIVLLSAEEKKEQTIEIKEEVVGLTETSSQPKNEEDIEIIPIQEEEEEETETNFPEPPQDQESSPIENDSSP
- method_description: CD20/CHO cell-ELISA, antibody at 3 ng/ml
property_name: A492 (A492)

binder: chimeric anti-CD20 monoclonal antibody c1K1782 (antibody, V domains shown, Murine variable regions fused to human immunoglobulin H chain and L chain (kappa) constant regions of vector pNOW-Ab) VH: QVQLQQSGAELAKPGASVKMSCKASGYTFTSYWMHWVKQRPGQGLEWIGYITPSTGYTDYNKKFKDKATLTADRSSSTAYMHLSSLTSEDSAVYYCARSGPYFDVWGAGTTVTVSS VL: DILLTQSPAILFVSPGERVSLSCRASQNIGTSIHWYQQRTNGSPRLLIKYASESFSGIPSRFSGSGSGTDFTLSINSVESEDIADYYCQQSNSWPFTFGSGTKLEIK
property_name: A492
unit_info: A492
numeric_result: 0.169
--
binder: chimeric anti-CD20 monoclonal antibody c1K1422 (antibody, V domains shown, Murine variable regions fused to human immunoglobulin H chain and L chain (kappa) constant regions of vector pNOW-Ab) VH: QVQLQQPGAELVKPGASVKMSCRASGYTFTNYNMHWIKQTPGQGLEWIGAIYPGSGDTSYNRKFKGKATLTADTSSSTAYMQFSSLTSADSAVYYCARFTYYYGGTYGAMDYWGQGTSVTVSL VL: QIVLTQSPPIMSASLGEEITLTCSASSRVSYMLWYQQKSGTSPKLLIYSTSNLASGVPSRFSGSGSGTFYSLTISSVEAEDAADYYCHQWTSNPCTFGGGTKLEIK
property_name: A492
unit_info: A492
numeric_result: 0.151
--
binder: Rituximab (c2B8) (antibody, V domains shown) VH: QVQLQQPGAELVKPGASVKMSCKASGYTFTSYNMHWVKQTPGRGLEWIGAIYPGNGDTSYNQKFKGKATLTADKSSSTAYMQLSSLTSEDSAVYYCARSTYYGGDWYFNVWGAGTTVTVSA VL: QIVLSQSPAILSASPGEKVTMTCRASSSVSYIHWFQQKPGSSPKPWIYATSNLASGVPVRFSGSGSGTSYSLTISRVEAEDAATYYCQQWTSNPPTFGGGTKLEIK
property_name: A492
unit_info: A492
numeric_result: 0.226
